max response reference
experiment: qHTS assay for small molecule antagonists of retinoid X receptor alpha signaling (AID 588546); settings: HEK293T RXRa-UAS-bla, beta-lactamase ratio, antagonist mode; measured here: W530 green channel, cytotoxicity proxy;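 note: cells stimulated with 9-cis-retinoic acid as agonist; % is set by controls: 0 for no effect and ±100 for the full control effect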
Records with an inconclusive call do not appear.
Value expressed in %; do not type the unit.

Smiles: Cl/C=C/CCl
Value Reported: 3.06

# input GET /values?readout=max response&item= `CCOC(=O)CBr`
# output -3.97

# input GET /values?readout=max response&item= `Nc1ccc(Cl)c(Cl)c1`
# output 2.84

# input GET /values?readout=max response&item= `Cc1cc(Cl)ccc1O`
# output -5.47

# input GET /values?readout=max response&item= `Clc1cccc2ccccc12`
# output -3.08

# input GET /values?readout=max response&item= `CCCCC(=O)Cl`
# output -10.8

# input GET /values?readout=max response&item= `O=[N+]([O-])c1cc(Cl)c(Cl)c(Cl)c1`
# output -6.59

# input GET /values?readout=max response&item= `Cc1ccccc1[N+](=O)[O-]`
# output -5.55

# input GET /values?readout=max response&item= `ClC(Cl)(Cl)C(Cl)(Cl)Cl`
# output -34.4

# input GET /values?readout=max response&item= `O=[N+]([O-])c1ccc(O)c([N+](=O)[O-])c1`
# output -0.361

# input GET /values?readout=max response&item= `N#CC(Br)Br`
# output -2.67

# input GET /values?readout=max response&item= `O=C(O)C(Br)Br`
# output -1.6

# input GET /values?readout=max response&item= `O=[N+]([O-])c1cccc(O)c1`
# output -2.66

# input GET /values?readout=max response&item= `O=C(O)c1cc(Cl)ccc1Cl`
# output -9.46

---

test: Cellular Toxicity (caspase-3) Hek293 (AID 664); conditions: HEK293 caspase-3 activation, DMSO = 0%, 100 µM tamoxifen = 100%; at 92.2 µM (top of the series);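 note: cells exposed to compound for 16 h at 37 °C before readout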
Records with an inconclusive call do not appear.
Attribute Measured: caspase-3 activation (%)
Value expressed in %; do not type the unit.

Known caspase-3 activation results, listed for orientation:
Molecule: O=P(OCCCl)(OCCCl)OCCCl
Units Text: %
Value Reported: 4.86

Molecule: CCC[N+](=O)[O-]
Units Text: %
Value Reported: 0.185

Molecule: O=C(O)C(Cl)(Cl)Br
Units Text: %
Value Reported: 1.91

# input GET /values?readout=caspase-3 activation&item= `CCCCC(=O)Cl`
# output -0.249

# input GET /values?readout=caspase-3 activation&item= `CC(C)(OOC(C)(C)c1ccccc1)c1ccccc1`
# output 4.99

# input GET /values?readout=caspase-3 activation&item= `O=C(Cl)c1ccccc1F`
# output 1.06

# input GET /values?readout=caspase-3 activation&item= OCC(Cl)CCl (stereo not given)
# output 1.15

# input GET /values?readout=caspase-3 activation&item= `O=c1ccc(=O)[nH][nH]1`
# output -1

# input GET /values?readout=caspase-3 activation&item= `c1ccc(NNc2ccccc2)cc1`
# output -0.473

# input GET /values?readout=caspase-3 activation&item= `[N-]=[N+]=[N-]`
# output -2.5

# input GET /values?readout=caspase-3 activation&item= `c1ccc(P(c2ccccc2)c2ccccc2)cc1`
# output -0.936

# input GET /values?readout=caspase-3 activation&item= `CN(C)c1ccc(N(C)C)cc1`
# output -1.04

# input GET /values?readout=caspase-3 activation&item= `CCOP(=O)(OCC)OCC`
# output 0.845

# input GET /values?readout=caspase-3 activation&item= Cc1coc2c1CCC(C)C2 (stereo not given)
# output 0.975

---

assay: Cellular Toxicity (caspase-3) SHSY5Y (AID 657); conditions: SH-SY5Y caspase-3 activation, DMSO zero, 10 µM staurosporine = 100%; series mostly up to 91.7 µM;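 note: cells exposed to compound for 16 hours at 37 °C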
Active and inactive are the calls of the source. The call rests on the fitted dose curve; in most records, active means well fitted activation curve with a large enough effect; inconclusive means small, poorly fitted or top-dose-only effect; inactive means flat fitted curve, though single readings scatter.
Attribute Measured: outcome

Known outcome results, listed for orientation:
Compound: CCC[N+](=O)[O-]
Attribute Measured: outcome
Value Reported: inactive
--
Compound: CC(C)(Cl)[N+](=O)[O-]
Attribute Measured: outcome
Value Reported: inactive
--
Compound: BrCC(Br)C1CCC(Br)C(Br)C1 (configuration not stated)
Attribute Measured: outcome
Value Reported: inactive
--
Compound: [O-][Cl+2]([O-])O
Attribute Measured: outcome
Value Reported: inactive
--
Compound: O=[N+]([O-])c1c(Cl)c(Cl)c(Cl)c(Cl)c1Cl
Attribute Measured: outcome
Value Reported: inactive

# input GET /values?readout=outcome&item= `COc1ccccc1N`
# output inactive

# input GET /values?readout=outcome&item= `CC[N+](=O)[O-]`
# output inactive

---

Assay: Cell Viability - LYMP2-017 (AID 972);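 note: cells exposed to compound for 24 hours at 37 °C; nearly all actives have a fitted effect of over 55% in size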
Conditions: LYMP2-017 lymphoblastoid cell viability; series mostly up to 92.2 µM
From the text: NIH Chemical Genomics Center [NCGC] NIH Molecular Libraries Screening Centers Network [MLSCN] National Institutes of Environmental Health Sciences [NIEHS] National Toxicology Program [NTP] We have developed a 1536-well cell-based assay for quantitative high throughput screening (qHTS) against a number of cell lines to determine in vitro cytotoxicity of small molecules. […] 8. Detection; Luminescence; Viewlux plate reader […]
Records with an inconclusive call do not appear. Calls of active or inactive are those of the source. Calls follow the shape of the dose curve; as a rule, active = well fitted cell-killing curve with a large enough effect; inconclusive = small, poorly fitted or top-dose-only effect; inactive = flat fitted curve, though single readings scatter.
Would you mind answering with one of these outcomes? active, inactive

Record excerpt, results attached:
Compound: Oc1ccc(Cl)c(Cl)c1
Assigned Label: inactive
--
Compound: Nc1cc(Cl)ccc1Cl
Assigned Label: inactive
--
Compound: CSSC
Assigned Label: inactive
--
Compound: O=C(Cl)OCc1ccccc1
Assigned Label: inactive
--
Compound: BrCC(Br)(Br)Br
Assigned Label: active

# input Assay result, entry `C=CCO` — outcome?
# output inactive

# input Assay result, entry `CCOP(=S)(OCC)Oc1nc(Cl)c(Cl)cc1Cl` — outcome?
# output inactive

# input Assay result, entry `Nc1ccc2ccccc2c1` — outcome?
# output inactive

# input Assay result, entry `CN=C=O` — outcome?
# output inactive

# input Assay result, entry `O=[N+]([O-])c1ccccc1O` — outcome?
# output inactive

# input Assay result, entry `Clc1cc(Cl)c(Cl)c(Cl)c1` — outcome?
# output inactive

# input Assay result, entry `Nc1cccc(Cl)c1` — outcome?
# output inactive

# input Assay result, entry `N#CCBr` — outcome?
# output inactive

# input Assay result, entry `Cc1ccc(N=C=O)cc1N=C=O` — outcome?
# output inactive

# input Assay result, entry C(CCOCC1CO1)COCC1CO1 (stereo unspecified) — outcome?
# output inactive

# input Assay result, entry ClCC(Br)CBr (stereo unspecified) — outcome?
# output inactive

# input Assay result, entry `CC(C)(Cl)Cl` — outcome?
# output inactive

# input Assay result, entry `C=CCCl` — outcome?
# output inactive

# input Assay result, entry `C=CC=O` — outcome?
# output inactive

# input Assay result, entry `Cc1ccc(N)cc1Cl` — outcome?
# output inactive

---

max response reference
target: Retinoic acid receptor RXR-alpha (Homo sapiens) (UniProt P19793); assay: qHTS assay for small molecule antagonists of retinoid X receptor alpha signaling (AID 588546); details: HEK293T RXRa-UAS-bla, beta-lactamase ratio, antagonist mode;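 note: cells stimulated with 9-cis-retinoic acid as agonist; % is set by controls: 0 for no effect and ±100 for the full control effect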
Sequence (P19793 whole entry, looked up): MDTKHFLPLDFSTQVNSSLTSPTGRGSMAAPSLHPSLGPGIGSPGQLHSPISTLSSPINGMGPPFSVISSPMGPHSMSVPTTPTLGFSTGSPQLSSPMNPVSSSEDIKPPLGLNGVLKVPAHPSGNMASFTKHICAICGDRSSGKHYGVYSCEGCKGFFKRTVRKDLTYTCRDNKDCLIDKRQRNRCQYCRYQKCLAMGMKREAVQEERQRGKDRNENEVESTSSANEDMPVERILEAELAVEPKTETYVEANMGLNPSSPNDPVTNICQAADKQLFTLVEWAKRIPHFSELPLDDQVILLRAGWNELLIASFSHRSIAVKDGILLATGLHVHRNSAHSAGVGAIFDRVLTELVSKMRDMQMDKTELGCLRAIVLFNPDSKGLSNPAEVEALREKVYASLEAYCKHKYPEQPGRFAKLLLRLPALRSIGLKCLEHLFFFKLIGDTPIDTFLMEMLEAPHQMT
Records with an inconclusive call do not appear.
Value expressed in %; do not type the unit.

Known max response results, listed for orientation:
Compound: CCC#N
Target System: Retinoic acid receptor RXR-alpha (Homo sapiens) (UniProt P19793)
max response / %: 10.5
//
Compound: OCCBr
Target System: Retinoic acid receptor RXR-alpha (Homo sapiens) (UniProt P19793)
max response / %: 2.44
//
Compound: Cc1ccc(N)c(N)c1
Target System: Retinoic acid receptor RXR-alpha (Homo sapiens) (UniProt P19793)
max response / %: -10.9

# input Query the reported max response for Retinoic acid receptor RXR-alpha (Homo sapiens) (UniProt P19793); item: `O=P(OCCCl)(OCCCl)OCCCl`
# output 7.26

# input Query the reported max response for Retinoic acid receptor RXR-alpha (Homo sapiens) (UniProt P19793); item: CCCCC(CC)COC(=O)c1ccc(C(=O)OCC(CC)CCCC)c(C(=O)OCC(CC)CCCC)c1 (stereo unspecified)
# output 5.41

# input Query the reported max response for Retinoic acid receptor RXR-alpha (Homo sapiens) (UniProt P19793); item: CC12CC1(C)C(=O)N(c1cc(Cl)cc(Cl)c1)C2=O (stereo unspecified)
# output -13.5

---

system: HIV-1 nucleocapsid protein NCp7 (binding to TG oligonucleotide); assay: HIV Nucleocapsid (AID 346); settings: HIV-1 NC / fluorescein-TGTGTGTG probe, fluorescence polarization;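 note: potency is the fitted concentration of half-maximal effect; potency is for inhibitors that block NC binding and lower polarization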
Calls of active or inactive are those of the source. How the calls were made is not given here.
Attribute Measured: Potency

Smiles: O=C(c1csnn1)N1CCC2(CC1)CN(c1ccccc1)C2
Potency: > 20 µM (inactive)

# input Query the reported Potency for HIV-1 nucleocapsid protein NCp7 (binding to TG oligonucleotide); item: `CCNc1ncc2nc(-c3cc(F)cc(F)c3)c(=O)n(-c3ccc(OC)cc3)c2n1`
# output > 4 µM (inactive)

# input Query the reported Potency for HIV-1 nucleocapsid protein NCp7 (binding to TG oligonucleotide); item: `COc1ccc(CNc2ncncc2-c2ccc(C(=O)N(C)C)cc2)c(OC)c1`
# output > 20 µM (inactive)

# input Query the reported Potency for HIV-1 nucleocapsid protein NCp7 (binding to TG oligonucleotide); item: `N#Cc1cccc(-c2nc3cnc(N4CCNCC4)nc3n(C3CC3)c2=O)c1`
# output > 20 µM (inactive)

# input Query the reported Potency for HIV-1 nucleocapsid protein NCp7 (binding to TG oligonucleotide); item: `O=C(c1cccc(F)c1)N1CCC2(CCN(Cc3ccccc3)CC2)CC1`
# output > 20 µM (inactive)

# input Query the reported Potency for HIV-1 nucleocapsid protein NCp7 (binding to TG oligonucleotide); item: `Cn1c(=O)c(-c2ccc(Cl)cc2)nc2cnc(OCc3ccccc3)nc21`
# output > 20 µM (inactive)

# input Query the reported Potency for HIV-1 nucleocapsid protein NCp7 (binding to TG oligonucleotide); item: `Cn1c(=O)c(-c2ccccc2)nc2cnc(N3CCOCC3)nc21`
# output > 20 µM (inactive)

# input Query the reported Potency for HIV-1 nucleocapsid protein NCp7 (binding to TG oligonucleotide); item: `COc1ccc(-n2c(=O)c(-c3cn(C)c4ccccc34)nc3cnc(N4CCOCC4)nc32)cc1`
# output > 20 µM (inactive)

# input Query the reported Potency for HIV-1 nucleocapsid protein NCp7 (binding to TG oligonucleotide); item: `O=c1cnc2cnc(N3CCNCC3)nc2n1Cc1ccc(F)cc1`
# output > 20 µM (inactive)

# input Query the reported Potency for HIV-1 nucleocapsid protein NCp7 (binding to TG oligonucleotide); item: `COc1cccc(-c2ccc3ncnc(NCc4ccc(OC)cc4OC)c3c2)c1`
# output > 20 µM (inactive)

# input Query the reported Potency for HIV-1 nucleocapsid protein NCp7 (binding to TG oligonucleotide); item: `Clc1ccccc1-c1nccc(NCc2ccccc2)n1`
# output > 20 µM (inactive)
